Each recorded value in this set is attributed to ChEMBL document CHEMBL4425196.

Test system: HepG2
Test: Growth inhibition of human HepG2 cells by MTT assay
Format: functional
measuredAttribute: GI50 (µM)

smilesRepresentation: COc1cccc(C(=O)Nc2cccc(-c3cc(=O)c4c(OC)c(OC)c(OC)cc4o3)c2)c1
measuredAttribute: GI50
inequalitySymbol: =
observedValue: 7.06
--
smilesRepresentation: COc1cc2oc(-c3cccc(NC(=O)c4cccc(C#N)c4)c3)cc(=O)c2c(OC)c1OC
measuredAttribute: GI50
inequalitySymbol: =
observedValue: 11.9
--
smilesRepresentation: COc1ccc(C(=O)Nc2cccc(-c3cc(=O)c4c(O)c(OC)c(OC)cc4o3)c2)cc1
measuredAttribute: GI50
inequalitySymbol: >
observedValue: 100
--
smilesRepresentation: COc1cc2oc(-c3cccc(NC(=O)c4ccccc4)c3)cc(=O)c2c(OC)c1OC
measuredAttribute: GI50
inequalitySymbol: =
observedValue: 11.7
--
smilesRepresentation: COc1cc2oc(-c3cccc(NC(=O)c4ccc(C)cc4)c3)cc(=O)c2c(OC)c1OC
measuredAttribute: GI50
inequalitySymbol: =
observedValue: 9.75
--
smilesRepresentation: COC(=O)c1ccc(C(=O)Nc2cccc(-c3cc(=O)c4c(OC)c(OC)c(OC)cc4o3)c2)cc1
measuredAttribute: GI50
inequalitySymbol: >
observedValue: 100
--
smilesRepresentation: COc1cc2oc(-c3cccc(NC(=O)c4ccc(C#N)cc4)c3)cc(=O)c2c(OC)c1OC
measuredAttribute: GI50
inequalitySymbol: =
observedValue: 10.2
--
smilesRepresentation: COc1cccc(C(=O)Nc2cccc(-c3cc(=O)c4c(O)c(OC)c(OC)cc4o3)c2)c1
measuredAttribute: GI50
inequalitySymbol: >
observedValue: 100
--
smilesRepresentation: COc1cc2oc(-c3cccc(NC(=O)c4ccc5c(c4)OCO5)c3)cc(=O)c2c(OC)c1OC
measuredAttribute: GI50
inequalitySymbol: =
observedValue: 5.94
--
smilesRepresentation: COc1cc2oc(-c3cccc(NC(=O)c4ccc(Cl)cc4)c3)cc(=O)c2c(OC)c1OC
measuredAttribute: GI50
inequalitySymbol: =
observedValue: 21.3
--
smilesRepresentation: COc1ccccc1C(=O)Nc1cccc(-c2cc(=O)c3c(OC)c(OC)c(OC)cc3o2)c1
measuredAttribute: GI50
inequalitySymbol: =
observedValue: 7.53
--
smilesRepresentation: COc1cc2oc(-c3cccc(NC(=O)c4ccc5c(c4)OCO5)c3)cc(=O)c2c(O)c1OC
measuredAttribute: GI50
inequalitySymbol: =
observedValue: 45.1
--
smilesRepresentation: COc1cc2oc(-c3cccc(NC(=O)c4ccc(Br)cc4)c3)cc(=O)c2c(OC)c1OC
measuredAttribute: GI50
inequalitySymbol: =
observedValue: 8.85
